# Tgt: PI3Kβ (Homo sapiens, UniProt P42338)
# Construct: purchased DiscoveRx Corporation, San Diego (contract service, KINOMEscan)
# Sequence (P42338 whole entry): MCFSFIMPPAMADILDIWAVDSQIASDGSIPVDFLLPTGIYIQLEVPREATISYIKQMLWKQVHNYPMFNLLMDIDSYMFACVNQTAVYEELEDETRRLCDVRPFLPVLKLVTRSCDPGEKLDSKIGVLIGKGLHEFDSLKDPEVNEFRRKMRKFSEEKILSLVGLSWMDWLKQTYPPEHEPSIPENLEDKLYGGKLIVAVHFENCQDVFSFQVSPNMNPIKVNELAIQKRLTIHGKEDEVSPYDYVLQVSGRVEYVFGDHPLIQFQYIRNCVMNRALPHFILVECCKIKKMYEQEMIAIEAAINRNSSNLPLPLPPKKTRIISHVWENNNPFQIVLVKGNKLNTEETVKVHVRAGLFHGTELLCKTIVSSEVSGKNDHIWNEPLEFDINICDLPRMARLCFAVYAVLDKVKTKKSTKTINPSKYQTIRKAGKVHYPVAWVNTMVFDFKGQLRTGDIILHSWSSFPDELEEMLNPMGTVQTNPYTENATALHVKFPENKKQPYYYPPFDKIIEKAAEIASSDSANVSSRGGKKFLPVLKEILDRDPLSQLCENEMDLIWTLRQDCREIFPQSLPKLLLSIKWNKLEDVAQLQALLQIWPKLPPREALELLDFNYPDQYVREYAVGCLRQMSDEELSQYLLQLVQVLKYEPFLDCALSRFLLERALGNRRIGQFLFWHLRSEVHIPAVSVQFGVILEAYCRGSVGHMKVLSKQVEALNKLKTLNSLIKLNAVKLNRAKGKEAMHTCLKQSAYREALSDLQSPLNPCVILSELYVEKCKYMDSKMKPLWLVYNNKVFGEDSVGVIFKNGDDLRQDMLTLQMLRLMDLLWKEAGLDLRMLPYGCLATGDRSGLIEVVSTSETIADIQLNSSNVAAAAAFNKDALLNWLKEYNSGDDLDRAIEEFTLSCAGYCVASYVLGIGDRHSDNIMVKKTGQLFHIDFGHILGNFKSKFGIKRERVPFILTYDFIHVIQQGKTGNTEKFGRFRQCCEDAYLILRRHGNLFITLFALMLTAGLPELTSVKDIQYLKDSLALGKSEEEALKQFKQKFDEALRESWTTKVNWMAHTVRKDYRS
# Assay Details: Enzyme binding assay (KINOMEscan, DiscoveRx)
# Cond: PIK3Cβ_h, read-out: Kd PIK3Cβ_h
Reported Endpoint: pKd
Answers are plain numbers, as −log10 of the molar value.

INSERT INTO assay_data (compound, numeric_value) VALUES
  ('CC(Nc1cc(F)cc(F)c1)c1cc(C(=O)NS(N)(=O)=O)cc2ncc(N3CCOCC3)nc12 (single isomer, unassigned) [Compound 243b]', 7.85),
  ('CN(Cc1cc(F)cc(F)c1)c1cc(C(=O)N2CCNC(C(F)(F)F)C2)cc2ncc(N3CCOCC3)nc12 (centres unmarked) [Compound 319b]', 7.23),
  ('O=C(c1cc(C2CCCN2c2cc(F)cc(F)c2)c2nc(N3CCOCC3)cnc2c1)N1CCC[C@H]1CO (mixture of isomers) [Compound 64]', 9.00),
  ('O=C(NCCO)c1cc(N2CCC2c2ccc(F)cc2)c2nc(N3CCOCC3)cnc2c1 (single isomer, unassigned) [Compound 391b]', 4.71);

// pKd lookup, key: CC(C)NCCNC(=O)c1cc(C(C)Nc2cc(F)cc(F)c2)c2nc(N3CCOCC3)cnc2c1 (single isomer, unassigned) [Compound 212]
7.92

###

# Tgt: UniProt:P42345
pKd: −log10 of the molar value.
Reported Endpoint: pKd

These solved cases illustrate the format of a correct answer.
INSERT INTO assay_data (compound, reported_endpoint, result) VALUES
  ('CON(C)C(=O)c1cc(C2CCCN2c2cc(F)cc(F)c2)c2nc(N3CCOCC3)cnc2c1 (stereo not drawn)', 'pKd', '< 4.52'),
  ('CC(Nc1ccc(F)c(F)c1)c1cc(C(=O)NCC(C)(C)O)cc2ncc(N3CCOCC3)nc12 (single isomer, unassigned) [Compound 348b]', 'pKd', '< 4.52'),
  ('CN[C@H]1CCN(C(=O)c2cc(C(C)Oc3cc(F)c(F)c(F)c3)c3nc(N4CCOCC4)cnc3c2)C1 (single isomer, unassigned) [Compound 405b]', 'pKd', 4.68);

Working through the 6 compounds below one at a time, give pKd for each.
1. CN[C@H]1CCN(C(=O)c2cc(C(C)Nc3cc(F)c(F)c(F)c3)c3nc(N4CCOCC4)cnc3c2)C1 (single isomer, unassigned) [Compound 297b]
2. Cc1cc(C2CCCN2c2cc(F)cc(F)c2)c2nc(N3CCOCC3)cnc2c1 (single isomer, unassigned)
3. CC(Nc1cccc(F)c1)c1cc(C(=O)N2CCC[C@H](O)C2)cc2ncc(N3CCOCC3)nc12 (single isomer, unassigned) [Compound 320b]
4. CN(Cc1cc(F)cc(F)c1)c1cc(C(=O)N2CCNC(C(F)(F)F)C2)cc2ncc(N3CCOCC3)nc12 (stereo not drawn) [Compound 319b]
5. CN[C@@H]1CCN(C(=O)c2cc(C(C)Nc3ccc(F)c(F)c3)c3nc(N4CCOCC4)cnc3c2)C1 (single isomer, unassigned) [Compound 371a]
6. CC(Nc1cc(F)cc(F)c1)c1cc(C(=O)N(C)CCN(C)C)cc2ncc(N3CCOCC3)nc12 (single isomer, unassigned) [Compound 181]

1. < 4.52
2. < 4.52
3. < 4.52
4. < 4.52
5. < 4.52
6. < 4.52

Working through the 3 compounds below one at a time, give pKd for each.
1. C[C@@H]1CN(c2cnc3cc(C(=O)N(C)C)cc(C4CCCN4c4cc(F)cc(F)c4)c3n2)CCO1 (stereo partly drawn) [Compound 4]
2. CN[C@H]1CCN(C(=O)c2cc(C(C)Nc3ccc(F)c(F)c3)c3nc(N4CCOCC4)cnc3c2)C1 (single isomer, unassigned) [Compound 365a]
3. CC(Nc1cc(F)cc(F)c1)c1cc(C(=O)N(C)C)cc2ncc(N3CCOCC3)nc12 (single isomer, unassigned) [Compound 12]

< 4.52
< 4.52
4.58

###

Entries below carry reported Kd on kinase enzymes (Homo sapiens, UniProt P42336).
Sequence (P42336 whole entry): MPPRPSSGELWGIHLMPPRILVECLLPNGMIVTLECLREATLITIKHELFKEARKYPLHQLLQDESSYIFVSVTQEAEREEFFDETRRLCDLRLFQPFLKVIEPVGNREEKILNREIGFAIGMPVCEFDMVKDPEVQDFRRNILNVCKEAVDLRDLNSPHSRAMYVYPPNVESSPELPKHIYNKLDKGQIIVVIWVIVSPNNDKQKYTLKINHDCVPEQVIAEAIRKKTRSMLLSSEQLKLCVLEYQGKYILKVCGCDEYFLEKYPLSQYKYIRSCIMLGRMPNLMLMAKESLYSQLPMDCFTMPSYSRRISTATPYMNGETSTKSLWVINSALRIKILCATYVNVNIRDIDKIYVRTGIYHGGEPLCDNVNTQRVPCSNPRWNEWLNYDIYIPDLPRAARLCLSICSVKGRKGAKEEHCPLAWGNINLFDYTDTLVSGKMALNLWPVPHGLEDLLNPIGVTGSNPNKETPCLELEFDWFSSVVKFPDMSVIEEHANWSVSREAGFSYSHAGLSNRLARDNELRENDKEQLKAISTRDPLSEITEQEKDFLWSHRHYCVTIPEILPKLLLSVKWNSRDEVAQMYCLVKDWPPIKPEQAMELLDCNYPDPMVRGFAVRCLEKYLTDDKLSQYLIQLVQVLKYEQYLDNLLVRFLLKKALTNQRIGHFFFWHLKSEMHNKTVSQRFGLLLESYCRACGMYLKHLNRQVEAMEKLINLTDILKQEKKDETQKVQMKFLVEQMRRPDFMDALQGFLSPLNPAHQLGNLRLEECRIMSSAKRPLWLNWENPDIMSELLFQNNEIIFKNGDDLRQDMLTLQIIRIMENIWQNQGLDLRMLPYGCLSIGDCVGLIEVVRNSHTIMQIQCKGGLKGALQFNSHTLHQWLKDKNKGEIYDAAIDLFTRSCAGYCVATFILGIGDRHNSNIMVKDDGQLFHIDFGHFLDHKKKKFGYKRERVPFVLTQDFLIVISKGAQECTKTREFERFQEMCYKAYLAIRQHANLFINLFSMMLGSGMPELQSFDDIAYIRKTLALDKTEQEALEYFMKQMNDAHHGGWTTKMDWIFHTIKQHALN

These solved cases illustrate the format of a correct answer.
INSERT INTO assay_data (molecule, result) VALUES
  ('COC(=O)c1cc(C(C)Nc2cc(F)cc(F)c2)c2nc(N3CCOCC3)cnc2c1 (stereo not drawn) [Compound 80]', '> 30.2 µM'),
  ('CC(Nc1cc(F)cc(F)c1)c1cc(CN2CCn3nccc3C2)cc2ncc(N3CCOCC3)nc12 (single isomer, unassigned) [Compound 210]', '3.16 µM');

// Kd lookup, key: COC(=O)c1cc(C(C)Nc2ccc(C)c(F)c2)c2nc(N3CCOCC3)cnc2c1 (stereo not drawn) [Compound 293]
> 30.2 µM

###

Exercise: for every item that follows, state its recorded melting point.
Field note: include the unit after the figure.

These solved cases illustrate the format of a correct answer.
INSERT INTO assay_data (compound, result) VALUES
  ('NCc1cc(C2CCCN2c2cc(F)cc(F)c2)c2nc(N3CCOCC3)cnc2c1 (stereo not drawn)', '80 °C'),
  ('CC(C)NCCNC(=O)c1cc(C(C)Nc2cc(F)c(F)c(F)c2)c2nc(N3CCOCC3)cnc2c1 (single isomer, unassigned) [Compound 283b]', '170 °C'),
  ('CC(Nc1ccc(F)c(F)c1)c1cc(C(=O)N2CCN3CCC[C@@H]3C2)cc2ncc(N3CCOCC3)nc12 (single isomer, unassigned) [Compound 347a]', '125 °C'),
  ('CC(Nc1cc(F)cc(F)c1)c1cc(C(=O)N(C)CCN(C)C)cc2ncc(N3CCOCC3)nc12 (stereo not drawn) [Compound 180]', '148 °C'),
  ('CC1CN(C(=O)c2cc(C(C)Nc3ccc(F)c(F)c3)c3nc(N4CCOCC4)cnc3c2)CC(C)N1 (stereo not drawn) [Compound 357b]', '120 °C'),
  ('CC(Nc1cccc(F)c1)c1cc(C(=O)N2CC[C@@H](O)C2)cc2ncc(N3CCOCC3)nc12 (single isomer, unassigned) [Compound 321b]', '128 °C'),
  ('O=C(c1cc(C2CCCN2c2cc(F)cc(F)c2)c2nc(N3CCOCC3)cnc2c1)N1CC2(C1)CS(=O)(=O)C2 (stereo not drawn)', '160 °C'),
  ('CN(C)CCNC(=O)c1cc(CNc2cc(F)cc(F)c2)c2nc(N3CCOCC3)cnc2c1', '161 °C');

Consider now this further compound.
// melting point lookup, key: CCN1CCN(C(=O)c2cc(C(C)Nc3cccc(F)c3)c3nc(N4CCOCC4)cnc3c2)CC1 (single isomer, unassigned) [Compound 113]
307 °C

###

Exercise: for every item that follows, state its recorded melting point.
Answers are plain numbers, in °C.

These solved cases illustrate the format of a correct answer.
INSERT INTO assay_data (molecule, unit_name, numeric_value) VALUES
  ('CC(Oc1ccc(F)c(F)c1)c1cc(C(=O)N2CCN3CCC[C@H]3C2)cc2ncc(N3CCOCC3)nc12 (single isomer, unassigned) [Compound 369b]', '°C', 147),
  ('CC(O)c1cc(C2CCCN2c2cc(F)cc(F)c2)c2nc(N3CCOCC3)cnc2c1 (centres unmarked)', '°C', 80),
  ('Cc1ccc(NC(C)c2cc(C(=O)NCCN(C)C)cc3ncc(N4CCOCC4)nc23)cc1F (single isomer, unassigned) [Compound 407a]', '°C', 115),
  ('CC(Nc1cc(F)cc(F)c1)c1cc(CN2CCOCC2)cc2ncc(N3CCOCC3)nc12 (centres unmarked)', '°C', 165),
  ('COc1cccc(N2CCCC2c2cc(C(=O)N(C)C)cc3ncc(N4CCOCC4)nc23)c1 (centres unmarked)', '°C', 80),
  ('CC(Nc1cc(F)c(F)c(F)c1)c1cc(C(=O)NCCO)cc2ncc(N3CCOCC3)nc12 (single isomer, unassigned)', '°C', 80),
  ('O=C(c1cc(C2CCCN2c2cc(F)cc(F)c2)c2nc(N3CCOCC3)cnc2c1)N1CCC1 (single isomer, unassigned) [Compound 33]', '°C', 280);

// melting point lookup, key: CC(Oc1cc(F)ccc1Br)c1cc(C(=O)N(C)C)cc2ncc(N3CCOCC3)nc12 (centres unmarked)
235

###

# Tgt: PI3Kβ (Homo sapiens, UniProt P42338)
# Construct: purchased DiscoveRx Corporation, San Diego (contract service, KINOMEscan)
# Assay Details: Enzyme binding assay (KINOMEscan, DiscoveRx)
# Cond: PIK3Cβ_h, read-out: Kd PIK3Cβ_h
Kd strictly less than 20 nM = Yes. Otherwise No.

Worked cases, answers included:
INSERT INTO assay_data (compound, class_label) VALUES
  ('C[C@H](CO)NCc1cc(F)cc(N2CCCC2c2cc(C(=O)N(C)C)cc3ncc(N4CCOCC4)nc23)c1 (mixture of isomers)', 'No'),
  ('CC(Nc1cc(F)cc(F)c1)c1cc(C(=O)O)cc2ncc(N3CCOCC3)nc12 (centres unmarked) [Compound 83a]', 'Yes'),
  ('CC(Nc1cc(F)cc(F)c1)c1cc(CN2CCn3nccc3C2)cc2ncc(N3CCOCC3)nc12 (single isomer, unassigned) [Compound 210]', 'Yes'),
  ('Cc1ccc(NC(C)c2cc(C(=O)NCCO)cc3ncc(N4CCOCC4)nc23)cc1F (single isomer, unassigned) [Compound 295b]', 'No');

Okay, next one:
Does "CN(C)C(=O)c1cc(CNc2cc(F)cc(F)c2)c2nc(N3CCOCC3)cnc2c1" have Kd strictly under 20 nM?
Yes
